cell viability values, listed per item
# System: Vero E6
# measurement_notes: cell viability relative to DMSO; higher = less toxic
# test_settings: 72 h; 10 nM

The cases that follow already have their cell viability on record.
Input line: Given OCc1ccc(-c2ccc(-c3ccc(CO)s3)o2)s1 [RITA] , respond with its cell viability.
Output line: 103%

Input line: Note down cell viability recorded for `COC(=O)C(Cc1ccc(OCCn2c(=O)sc3cc(C(=O)c4ccccc4)ccc32)cc1)C(=O)OC`
Output line: 96.7%

Input line: Dear colleague, please send me the reported cell viability for NC(=O)Cc1cccc(C(=O)c2ccccc2)c1N [nepafenac] when you can.
Output line: 104%

Input line: Identify measured cell viability corresponding to CC(C[N+](C)(C)C)OC(N)=O (centres undefined) [bethanechol]
Output line: 91.8%

Input line: Supply measured cell viability of CN(Cc1ccc(C(C)(C)C)cc1)Cc1cccc2ccccc12 [butenafine] in your reply.
Output line: 102%

Input line: Respond only with cell viability recorded for CCc1ccc(/C=C/C(=O)Nc2ccc(C(C)=O)cc2)o1 [heclin]
Output line: 103%

Input line: Report cell viability for Cc1nc2c(O)cccc2c(=O)[nH]1 [NU-1025]
Output line: 102%

Input line: Annotate the compound `Cc1cc(CN2CCN(c3c(Br)cnc4nc(-c5ccc(N6CCN(C)CC6)cc5)[nH]c34)CC2)no1` with its measured cell viability.
Output line: 96.6%

More entries:
Input line: Input Cc1ccc(Cl)c(OCC(O)CNC(C)(C)C)c1 (centres undefined) [bupranolol] , output reported cell viability.
Output line: 97.5%

Input line: Give the value of cell viability reported for the following: CSCC1CN(/N=C/c2ccc([N+](=O)[O-])o2)C(=O)O1 (centres undefined) [inimur]
Output line: 96.4%

Input line: Give a short answer stating reported cell viability for COCCOc1ccc(N2CCN(CCn3ncc4c3nc(N)n3nc(-c5ccco5)nc43)CC2)cc1 [preladenant] .
Output line: 99.5%

Input line: Find the measured cell viability of `Nc1nc2c(cnn2CCc2ccccc2)c2nc(-c3ccco3)nn12` and report it.
Output line: 99.8%

Input line: Annotate the compound Cc1cc(C)c(NC(=O)N(Cc2ccc3c(c2)Cc2ccccc2-3)C2CCCCCC2)c(C)c1 [YM-750] with its measured cell viability.
Output line: 98.1%

Input line: # return recorded cell viability for input NC(=O)C[S+]([O-])C(c1ccccc1)c1ccccc1 (centres undefined) [MODAFINIL]
Output line: 103%

Input line: Return cell viability for the following compound: N=C(N)c1cc2ccc(OC(=O)c3cccs3)cc2s1 [BCX-1470]
Output line: 95.2%

Input line: For the compound CN(C)[C@@H]1C(O)=C(C(N)=O)C(=O)[C@@]2(O)C(O)=C3C(=O)c4c(O)ccc(Cl)c4[C@@H](O)[C@H]3C[C@@H]12 [demeclocycline] , give its reported cell viability.
Output line: 103%

Input line: State, in one line, measured cell viability of `COc1cccc(-c2cc(=O)c3ccccc3o2)c1N`
Output line: 108%

Input line: Return cell viability (reported value) for this compound: CN(C)N(C)C(=O)[C@@]1(Cc2ccccc2)CCCN(C(=O)[C@@H](Cc2c[nH]c3ccccc23)NC(=O)C(C)(C)N)C1 [anamorelin]
Output line: 107%

Input line: Using known records, supply cell viability for C/C=C1/[C@H](O[C@@H]2O[C@H](CO)[C@@H](O)[C@H](O)[C@H]2O)OC=C(C(=O)OC)[C@H]1CC(=O)OCCc1ccc(O)c(O)c1 [oleuropein]
Output line: 103%

Input line: Quick one: give measured cell viability for Cc1cccc(C)c1NC(=O)CN1CCN(CCCC(c2ccc(F)cc2)c2ccc(F)cc2)CC1 [lidoflazine]
Output line: 106%

Input line: Look up and report measured cell viability for this entry: NC(=O)NCCN1CCN(c2cccc(C(F)(F)F)c2)CC1 [fluprazine]
Output line: 99.5%

Input line: Please give the documented cell viability of CN1[C@@H]2CC[C@H]1C[C@@H](OC1c3ccccc3CCc3ccccc31)C2 [deptropine]
Output line: 93.8%

Input line: Entry `Cc1nc2ccc(NC(=O)Nc3ccnc4cccnc34)cc2o1` needs its cell viability filled in; supply it.
Output line: 98.8%

Input line: Annotate the compound Cc1cc(O)c2c(c1)C(=O)c1cccc(O)c1C2=O [chrysophanic-acid] with its measured cell viability.
Output line: 97.3%

Input line: Provide cell viability value for the following compound: [O-][n+]1ccccc1[S-].[O-][n+]1ccccc1[S-].[Zn+2] [pyrithione-zinc]
Output line: 93.6%

Input line: Output measured cell viability for this item: `O=C(Nc1ccncc1)c1cc([N+](=O)[O-])ccc1Cl`
Output line: 97.3%

Input line: Given CN1CCC(=C2c3ccccc3CC(=O)c3sccc32)CC1 [ketotifen] , respond with its cell viability.
Output line: 93.6%

Input line: Tell me its cell viability given Nc1ccc(S(=O)(=O)Nc2ccc(Cl)nn2)cc1 [sulfachlorpyridazine] as the entry.
Output line: 95.3%

Input line: Please give the documented cell viability of Oc1cccc(-c2c3nc(c(-c4cccc(O)c4)c4ccc([nH]4)c(-c4cccc(O)c4)c4nc(c(-c5cccc(O)c5)c5ccc2[nH]5)CC4)C=C3)c1 [temoporfin]
Output line: 100%

Input line: Entry `COc1ccccc1N1CCN(CCN(C(=O)C2CCCCC2)c2ccccn2)CC1` needs its cell viability filled in; supply it.
Output line: 102%

Cited source: the supplement of paper PMC13380429
